Reference source for all entries: the RNAGym collection of RNA variant scans (doi:10.1126/science.aae0568)

B1: tRNA (parent)
chain: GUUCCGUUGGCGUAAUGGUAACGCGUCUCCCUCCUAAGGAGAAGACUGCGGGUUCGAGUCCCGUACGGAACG

# Variants of: B1
# method_summary: yeast fitness relative to wild type (ratio to wild type); higher = fitter; tRNA-Arg(CCU), competitive growth, 37 C, YPD
Variants at the floor of the assay were thinned out.
measure_name: yeast fitness
Output: the number by itself.

Reference set (5 entries):
1. C29A C46U = 0.724
2. C33A A42C A45C U47G = 0.515
3. A37U A45U = 0.64
4. G6C C24U G67C = 0.537
5. C31A A37C G58C = 0.521

# input Reported yeast fitness for U2A C5A G9C U16C G25C G68C : what is it?
# output 0.586

# input Reported yeast fitness for C5U A21G C29U A45U : what is it?
# output 0.538

# input Reported yeast fitness for U26C A42U : what is it?
# output 1.01

# input Reported yeast fitness for U28A G68A : what is it?
# output 0.581

# input Reported yeast fitness for G17C G23C A43U C49A C66U A70U : what is it?
# output 0.603

# input Reported yeast fitness for U16A C24U C62U : what is it?
# output 0.692
